The origin of these recorded values is patent US20110060010A1.

- experimental.details: physchem
- conditions.used: water, thermodynamic from solid
measure: solubility

Returns the measured solubility for the input molecule. Input: Nc1cccc2c1CN(C1CCC(=O)NC1=O)C2=O.O.O.O.O.O=S(=O)(O)O (stereo not shown) > 1000 mg/mL
